Reported values of Kd for individual entries
Target: human ROR1 protein (recombinant ROR1 antigen, Kactus Biosystems) (human, UniProt Q01973 30-406, limits assumed)
Sequence (Q01973 30-406 limits assumed): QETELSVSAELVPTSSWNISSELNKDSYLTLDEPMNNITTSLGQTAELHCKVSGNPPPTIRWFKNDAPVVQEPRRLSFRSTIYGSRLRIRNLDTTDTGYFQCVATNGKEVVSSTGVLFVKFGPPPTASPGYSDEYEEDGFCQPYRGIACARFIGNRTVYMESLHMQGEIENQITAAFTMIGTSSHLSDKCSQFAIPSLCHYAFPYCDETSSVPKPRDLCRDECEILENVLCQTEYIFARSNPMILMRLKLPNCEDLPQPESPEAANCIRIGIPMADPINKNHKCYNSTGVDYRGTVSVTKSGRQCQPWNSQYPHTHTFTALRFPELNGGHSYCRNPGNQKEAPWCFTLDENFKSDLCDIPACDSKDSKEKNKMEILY
Assay: BLI (Octet R8), antibody captured on AHC sensor, ROR1 antigen as analyte
Please respond with the number in nM and leave the unit unwritten.

1. YR-8-NT (antibody, human IgG1, kappa, V domains shown, YR-8 with S61T (Kabat) in the heavy chain) VH: QVQLQESGPGLVKPSETLSLTCTVSGFSLTRYGVHWIRQPPGKGLEWLGVIWAGGFTNYNTDLKSRLTISKDNSKNQVSLKLSSVTAADTAVYYCARRGDSYSMKYWGQGTLVTVSS VL: EIVLTQSPATLSLSPGERATLSCSASSQVSYIHWYQQKPGQAPRPWIYETSKLASGIPARFSGSGSGTDYTLTISSLEPEDFAVYYCQQWNYPLITFGQGTKLEIKR ... 16
2. YR-8-NI (antibody, human IgG1, kappa, V domains shown, YR-8 with S61I (Kabat) in the heavy chain) VH: QVQLQESGPGLVKPSETLSLTCTVSGFSLTRYGVHWIRQPPGKGLEWLGVIWAGGFTNYNIDLKSRLTISKDNSKNQVSLKLSSVTAADTAVYYCARRGDSYSMKYWGQGTLVTVSS VL: EIVLTQSPATLSLSPGERATLSCSASSQVSYIHWYQQKPGQAPRPWIYETSKLASGIPARFSGSGSGTDYTLTISSLEPEDFAVYYCQQWNYPLITFGQGTKLEIKR ... 14
3. YR-8-NV (antibody, human IgG1, kappa, V domains shown, YR-8 with S61V (Kabat) in the heavy chain) VH: QVQLQESGPGLVKPSETLSLTCTVSGFSLTRYGVHWIRQPPGKGLEWLGVIWAGGFTNYNVDLKSRLTISKDNSKNQVSLKLSSVTAADTAVYYCARRGDSYSMKYWGQGTLVTVSS VL: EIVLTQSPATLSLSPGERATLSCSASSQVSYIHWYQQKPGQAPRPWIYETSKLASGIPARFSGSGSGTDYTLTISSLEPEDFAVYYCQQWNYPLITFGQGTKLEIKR ... 16
4. YR-8 (antibody, human IgG1, kappa, V domains shown) VH: QVQLQESGPGLVKPSETLSLTCTVSGFSLTRYGVHWIRQPPGKGLEWLGVIWAGGFTNYNSDLKSRLTISKDNSKNQVSLKLSSVTAADTAVYYCARRGDSYSMKYWGQGTLVTVSS VL: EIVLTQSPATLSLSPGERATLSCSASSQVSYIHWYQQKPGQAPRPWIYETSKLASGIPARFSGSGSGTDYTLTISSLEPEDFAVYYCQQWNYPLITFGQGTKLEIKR ... 18

Exercise: // returns reported Kd for input YR-8-NL (antibody, human IgG1, kappa, V domains shown, YR-8 with S61L (Kabat) in the heavy chain) VH: QVQLQESGPGLVKPSETLSLTCTVSGFSLTRYGVHWIRQPPGKGLEWLGVIWAGGFTNYNLDLKSRLTISKDNSKNQVSLKLSSVTAADTAVYYCARRGDSYSMKYWGQGTLVTVSS VL: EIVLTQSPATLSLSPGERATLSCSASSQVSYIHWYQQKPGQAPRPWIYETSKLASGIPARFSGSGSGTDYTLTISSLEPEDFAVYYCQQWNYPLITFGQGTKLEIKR
Solution: 16

Exercise: What measured Kd goes with YR-8-ES (antibody, human IgG1, kappa, V domains shown, YR-8 with N60E (Kabat) in the heavy chain; human IgG1 / kappa) VH: QVQLQESGPGLVKPSETLSLTCTVSGFSLTRYGVHWIRQPPGKGLEWLGVIWAGGFTNYESDLKSRLTISKDNSKNQVSLKLSSVTAADTAVYYCARRGDSYSMKYWGQGTLVTVSS VL: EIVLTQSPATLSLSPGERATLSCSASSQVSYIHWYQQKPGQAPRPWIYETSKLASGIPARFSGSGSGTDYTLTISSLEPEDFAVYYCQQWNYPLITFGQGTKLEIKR ?
Solution: 19

Exercise: Name the recorded Kd for YR-8-NA (antibody, human IgG1, kappa, V domains shown, YR-8 with S61A (Kabat) in the heavy chain) VH: QVQLQESGPGLVKPSETLSLTCTVSGFSLTRYGVHWIRQPPGKGLEWLGVIWAGGFTNYNADLKSRLTISKDNSKNQVSLKLSSVTAADTAVYYCARRGDSYSMKYWGQGTLVTVSS VL: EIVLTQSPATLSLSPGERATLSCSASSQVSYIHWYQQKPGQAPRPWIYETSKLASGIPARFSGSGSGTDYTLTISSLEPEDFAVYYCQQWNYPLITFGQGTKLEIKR .
Solution: 14
